The origin of these recorded values is patent US20260207572A1.

procedure.text: Phase 1 study: unbound plasma concentration and fraction unbound (protein binding)
Type: in vivo, human
conditions: human, plasma, po, 200 mg, Moderate Hepatic Impairment; 24 h; 200 mg single oral dose; read-out: Unbound Concentration, Arithmetic Mean
value.kind: concentration at 24 h (ng/mL)
One number for each entry, in ng/mL.

Field concentration at 24 h (entry `N#CC1(c2ccc(NC(=O)c3cccnc3NCc3ccncc3)cc2)CCCC1` ) reads 1.07

* * *

procedure.text: Phase 1 single-dose plasma pharmacokinetics in subjects with normal hepatic function, mild or moderate hepatic impairment
Type: in vivo, human
conditions: human, plasma, oral, 200 mg, Moderate vs Normal: Moderate hepatic impairment; paired analysis; read-out: AUC0-t, Geometric Least Squares Mean, Test
value.kind: AUC(0-t)

Measured AUC(0-t) of `N#CC1(c2ccc(NC(=O)c3cccnc3NCc3ccncc3)cc2)CCCC1` : 2380 ng·h/mL
